# relative solubility at 100 uM per entry
# Test context: 100.0 µM
Readout name: relative solubility at 100 uM

> print(dat)
                                    compound  result
 1  O=C(CCn1ccnn1)NC(CN1CCOCC1)c1ccccc1 (stereo not given)       1
 2   NS(=O)(=O)c1ccc(N2CCC(Nc3ccccc3)CC2)cc1       1
 3    O=C(NCCNc1ccccc1)c1cc(=O)[nH]c2ccccc12    0.98
 4              Cc1ccncc1NC(=O)Nc1cccc(Cl)c1    0.96
 5  Cc1nc(CCn2c(C3CCC(=O)N3)nnc2N2CCOC(C)(C)C2)n[nH]1 (stereo not given)       1
 6  NC(=O)C1CCN(c2nnc(C3CCC(=O)N3)n2CCc2cc(F)cc(F)c2)CC1 (stereo not given)       1
 7        CCOCC1CCN(c2ccc(S(N)(=O)=O)cc2)CC1       1
 8  Cc1ccncc1NC(=O)c1ccc(NC(=O)Nc2cccnc2)cc1    0.99
 9                  Cc1ccncc1NC(=O)CN1CCOCC1       1
10        O=C(Cc1ccc(O)cc1)Nc1cccc2cc[nH]c12       1
11  COc1ccc(C2CC(c3ccccc3)=NN2C(=O)CCl)cc1OC (stereo not given)    0.85
12  O=C(Cn1nnc2ccccc21)N(Cc1ccsc1)c1ccc(-c2ccccc2)cc1     0.5
13  CO[C@H](C)C(=O)N(C)c1cnccc1C (stereo in doubt)    0.99
14  O=C(CNc1c(-c2ccccc2)nc2ccccn12)N/N=C/c1cccc2ccccc12     0.5
15  CC1(C)Cc2cccc(OCCNC(=O)c3cc(=O)[nH]c4ccc(F)cc34)c2O1    0.84
16   NS(=O)(=O)c1ccc(N2CCC(N3CCCCCC3)CC2)cc1       1
17           CNC(=O)OC1CCN(C(=O)c2ccccc2)CC1       1
18       O=C(Cc1cccc(Cl)c1)Nn1cnc2ccccc2c1=O       1
19  C=CC(=O)N(c1ccc(N(C)C)c(C)c1)C(C(=O)Nc1ccc(OC)cc1C)c1cccnc1 (stereo not given)    0.83
20      Cc1ccncc1NC(=O)Cc1ccc(S(N)(=O)=O)cc1       1
21        Cc1ccncc1NC(=O)CCc1nc2cc(Cl)ccc2o1       1
22  C=CC(=O)N(c1ccc(C(C)(C)C)cc1)C(C(=O)NC(C)(C)C)c1cncc(OC)c1C (stereo not given)    0.95
23         CC(=O)NCc1cccc(NC(=O)Cc2cncnc2)c1       1
24  C=CC(=O)N(c1ccc(N(C)C)c(C)c1)C(C(=O)Nc1cccc(CC)c1)c1cccnc1 (stereo not given)    0.68
25  CCCN(CC1COc2ccccc2O1)C(=O)c1cc(=O)[nH]c2ccc(Cl)cc12 (stereo not given)    0.89
26  CCN1CCN(Cc2ccccc2CNC2=NC[C@@H](C3CCCC3)N2)CC1 (stereo in doubt)       1
27  CC(=O)N1CCN(CC(=O)Nc2cccc(S(N)(=O)=O)c2)CC1       1
28  C=CC(=O)N(c1ccc(N(C)C)c(C)c1)C(C(=O)Nc1ccc(Cl)cc1)c1cccnc1 (stereo not given)    0.78
29  C=CC(=O)N(c1ccc(N(C)C)c(C)c1)C(C(=O)Nc1ccc(OC)cc1)c1cccnc1 (stereo not given)    0.77
30  N#Cc1ccccc1S(=O)(=O)N1CCN(C(=O)c2cc(=O)[nH]c3cc(F)ccc23)CC1    0.95
31     O=C(NCc1cccnn1)Nc1cccc(OCCN2CCOCC2)c1    0.99
32  C=CC(=O)N(c1ccc(C(C)(C)CC)cc1)C(C(=O)Nc1cccc(F)c1C)c1cccnc1 (stereo not given)    0.72
33  C=CC(=O)N(c1ccc(SC)cc1)C(C(=O)NC(C)(C)C)c1cccnc1 (stereo not given)    0.99
34              O=C(CC(=O)N1CCOCC1)NC1CCCCC1       1
35  CC1CN(Cc2ccccc2NC(=O)NCc2cnsc2)CC(C)O1 (stereo not given)    0.98
36          Cc1ccncc1NS(=O)(=O)Cc1cccc(Cl)c1    0.99
37             O=C(Nc1ccccc1Cl)c1cc(Cl)ccc1O     0.7
38  C=CC(=O)N(c1ccc(C(C)(C)C)cc1)C(C(=O)NC1CCCC1)c1cccnc1 (stereo not given)       1
39      N#Cc1cccc(NC(=O)Nc2c[nH]c3ncccc23)c1    0.91
40              Cc1ccncc1NC(=O)Cc1cccc(Cl)c1       1
41                O=C(Nc1cccnc1)c1cccc(Cl)c1    0.92
42           O=C(CCl)N1CCN(Cc2cc(O)ccc2O)CC1    0.99
43  C=CC(=O)N(c1ccc(C(C)(C)C)cc1)C(C(=O)Nc1ccc(OC)cc1OC)c1cccnc1 (stereo not given)    0.84
44  CC(C)CCNC(=O)C(CC(C)C)NC(=O)C1OC1C(=O)O (stereo not given)       1
45          Cc1ccncc1NC(=O)CCNC(=O)c1ccccc1F       1

---

# Measured on: SARS-CoV-2 Main Protease (SARS-CoV-2)
# Test context: 50.0 µM
Readout name: inhibition (%)

> print(dat)
                                   molecule  value.unit  result
1  CC(C)Cn1cc(NC(=O)N2CCC(Cc3ccccc3)CC2)c2ccccc2c1=O           %    3.43
2  Cc1cc(C(C)(C)C)ccc1OC[C@H](O)Cn1cnccc1=O (stereo in doubt)           %    16.5
3              Cc1ccncc1NC(=O)CCc1ccc(F)cc1           %    5.92
4  N#Cc1ccccc1S(=O)(=O)N1CCN(C(=O)c2cc(=O)[nH]c3cc(F)ccc23)CC1           %    52.4
5  Cn1c(-c2ccc(NC(=O)C3CCCCC(=O)N3)cc2)nc2ccccc21 (stereo unspecified)           %   -2.97
6                  Cc1ccncc1NC(=O)Cc1ccccc1           %    19.5

---

# Measured on: SARS-CoV-2 Main Protease (SARS-CoV-2)
# Test context: 20.0 µM
Readout name: inhibition (%)

> print(dat)
                                    compound                            measured.on  readout.name  result
 1  Cc1nnc(C2Cc3ccccc3CN2C(=O)CCl)o1 (stereo unspecified)  SARS-CoV-2 Main Protease (SARS-CoV-2)    inhibition    16.3
 2            Cc1nnc(NC(=O)Cc2cccc(Cl)c2)n1C  SARS-CoV-2 Main Protease (SARS-CoV-2)    inhibition   -6.05
 3  O=C(Nc1nc2ccc(F)cn2n1)C1CCOc2ccc(Cl)cc21 (stereo unspecified)  SARS-CoV-2 Main Protease (SARS-CoV-2)    inhibition   -28.5
 4  CCn1c(=O)n(CC(=O)Nc2c(C)ccnc2C)c2ccccc21  SARS-CoV-2 Main Protease (SARS-CoV-2)    inhibition   -1.64
 5  COc1ccc(NC(=O)Nc2cn(C)c(=O)c3ccccc23)cc1OC  SARS-CoV-2 Main Protease (SARS-CoV-2)    inhibition     1.6
 6  C=CC(=O)N(c1ccc(C(C)OC)cc1)C(C(=O)Nc1c(C)cccc1CC)c1cccnc1 (stereo unspecified)  SARS-CoV-2 Main Protease (SARS-CoV-2)    inhibition     5.9
 7      Cc1ccc(O)cc1NC(=O)C(C)(C)c1cccc(F)c1  SARS-CoV-2 Main Protease (SARS-CoV-2)    inhibition    1.12
 8            Cc1cccc(CC2CCN(C(=O)CCl)CC2)c1  SARS-CoV-2 Main Protease (SARS-CoV-2)    inhibition    62.9
 9  CC1(C)CCCN1S(=O)(=O)c1ccc2c(c1)C(=O)C(=O)N2  SARS-CoV-2 Main Protease (SARS-CoV-2)    inhibition   -5.91
10  CC(C)Cn1cc(NC(=O)Nc2nc3ccccc3s2)c2ccccc2c1=O  SARS-CoV-2 Main Protease (SARS-CoV-2)    inhibition    3.79
11  CCN1CCN(Cc2ccccc2CNC2=NC[C@@H](C3CCCC3)N2)CC1 (stereo in doubt)  SARS-CoV-2 Main Protease (SARS-CoV-2)    inhibition   -1.16

---

# Test context: 20.0 µM
Measured relative solubility at 20 uM accompanies every entry in the list below.
Readout name: relative solubility at 20 uM

> print(dat)
                                    molecule                  readout.name  result
 1  O=C(NCCNc1cccnn1)c1ccccc1NS(=O)(=O)c1cc(F)ccc1F  relative solubility at 20 uM       1
 2            O=S(=O)(Cc1ccc(F)cc1)Nc1cccnc1  relative solubility at 20 uM       1
 3  C=CC(=O)N(C1CCCC(C(C)C)CC1)C(C(=O)NC(C)(C)C)c1cccnc1 (stereo not given)  relative solubility at 20 uM    0.99
 4             O=C(N/N=C/c1c[nH]cn1)C1CCCCC1  relative solubility at 20 uM    1.01
 5  CN1CCC(C(=O)NC2CCCCC2NC(=O)C2CCCCC2)CC1 (stereo not given)  relative solubility at 20 uM       1
 6  O=C(Cn1nnc2ccccc21)N(Cc1ccsc1)c1ccc(-c2ccccc2)cc1  relative solubility at 20 uM    0.64
 7  C[C@H]1CN(Cc2ccccc2)CC[C@@H]1NC(=O)C(=O)NCc1ccccc1CN1CCCC[C@@H]1C (stereo in doubt)  relative solubility at 20 uM       1
 8   NS(=O)(=O)c1ccc(N2CCC(CN3CCCCC3)CC2)cc1  relative solubility at 20 uM       1
 9  Cc1cc(C(C)(C)C)ccc1OC[C@H](O)Cn1cnccc1=O (stereo in doubt)  relative solubility at 20 uM    1.01
10                O=C(Cc1cccc(Cl)c1)Nn1cnnc1  relative solubility at 20 uM       1

Cited source: the COVID Moonshot data (paper PMC11187573)
